Assayed target: Sodium channel protein type 9 subunit alpha (Homo sapiens, UniProt Q15858)
Sequence (Q15858 whole entry): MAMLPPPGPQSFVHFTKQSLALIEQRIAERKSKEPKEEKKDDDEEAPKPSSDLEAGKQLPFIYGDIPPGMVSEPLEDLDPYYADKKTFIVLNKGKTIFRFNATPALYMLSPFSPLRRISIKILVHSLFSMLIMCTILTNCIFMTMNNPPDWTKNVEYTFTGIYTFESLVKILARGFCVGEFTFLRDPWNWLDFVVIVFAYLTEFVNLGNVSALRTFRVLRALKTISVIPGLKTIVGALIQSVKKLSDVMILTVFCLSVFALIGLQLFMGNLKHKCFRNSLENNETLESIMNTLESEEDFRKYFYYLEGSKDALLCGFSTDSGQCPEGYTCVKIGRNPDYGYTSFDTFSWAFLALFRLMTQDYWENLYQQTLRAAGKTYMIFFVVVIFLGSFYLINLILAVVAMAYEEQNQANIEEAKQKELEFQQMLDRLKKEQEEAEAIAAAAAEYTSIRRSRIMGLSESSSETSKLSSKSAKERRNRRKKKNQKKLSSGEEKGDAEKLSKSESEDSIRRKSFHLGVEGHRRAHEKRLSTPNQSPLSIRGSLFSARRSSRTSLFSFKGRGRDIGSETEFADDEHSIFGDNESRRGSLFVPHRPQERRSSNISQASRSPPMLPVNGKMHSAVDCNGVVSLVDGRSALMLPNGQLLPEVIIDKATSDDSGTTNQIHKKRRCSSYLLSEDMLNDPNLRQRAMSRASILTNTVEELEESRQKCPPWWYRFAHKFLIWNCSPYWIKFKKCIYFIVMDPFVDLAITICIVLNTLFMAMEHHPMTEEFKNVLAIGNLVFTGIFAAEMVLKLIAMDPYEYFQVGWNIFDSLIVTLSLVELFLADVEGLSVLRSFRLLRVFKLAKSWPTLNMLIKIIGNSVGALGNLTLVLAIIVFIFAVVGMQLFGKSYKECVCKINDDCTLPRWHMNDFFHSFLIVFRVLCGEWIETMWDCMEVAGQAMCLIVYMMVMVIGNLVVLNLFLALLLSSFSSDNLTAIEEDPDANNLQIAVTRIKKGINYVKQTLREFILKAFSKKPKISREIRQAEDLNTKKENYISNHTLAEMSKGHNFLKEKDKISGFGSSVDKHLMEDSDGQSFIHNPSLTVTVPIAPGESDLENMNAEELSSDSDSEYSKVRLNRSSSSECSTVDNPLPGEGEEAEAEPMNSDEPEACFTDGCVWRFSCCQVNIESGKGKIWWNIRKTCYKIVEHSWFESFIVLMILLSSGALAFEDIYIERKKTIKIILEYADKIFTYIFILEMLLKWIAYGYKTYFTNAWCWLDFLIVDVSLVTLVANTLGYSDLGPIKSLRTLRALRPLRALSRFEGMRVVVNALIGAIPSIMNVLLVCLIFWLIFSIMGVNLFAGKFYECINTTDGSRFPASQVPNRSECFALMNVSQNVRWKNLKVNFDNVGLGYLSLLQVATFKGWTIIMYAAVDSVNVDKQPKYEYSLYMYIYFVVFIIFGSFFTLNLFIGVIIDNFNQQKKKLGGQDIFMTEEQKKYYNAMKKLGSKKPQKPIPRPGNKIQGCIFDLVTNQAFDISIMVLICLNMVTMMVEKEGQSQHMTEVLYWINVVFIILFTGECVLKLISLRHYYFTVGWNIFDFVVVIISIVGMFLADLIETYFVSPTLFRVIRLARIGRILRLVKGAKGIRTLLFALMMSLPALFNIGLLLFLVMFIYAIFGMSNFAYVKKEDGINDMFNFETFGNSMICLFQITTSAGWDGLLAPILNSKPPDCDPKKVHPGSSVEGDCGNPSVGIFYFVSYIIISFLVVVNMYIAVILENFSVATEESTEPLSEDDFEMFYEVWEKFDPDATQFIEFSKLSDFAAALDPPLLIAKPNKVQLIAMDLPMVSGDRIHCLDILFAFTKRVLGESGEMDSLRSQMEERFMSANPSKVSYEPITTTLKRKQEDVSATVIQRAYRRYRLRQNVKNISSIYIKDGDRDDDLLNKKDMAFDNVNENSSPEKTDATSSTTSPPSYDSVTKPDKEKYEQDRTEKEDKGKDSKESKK
Test: Inhibition of human Nav1.7 expressed in HEK293 cells after 600 secs at -60 mV holding potential by ion works barracuda population patch clamp method
Type: cell-based
Reported IC50 values for a set of molecules
Answer with a number only, understood to be in nM.

Known IC50 results, listed for orientation:
| Molecule | Assayed target | Assay metric | Unit abbrev | Observed measurement |
| --- | --- | --- | --- | --- |
| Cn1nc(-c2ccc(C(F)(F)F)cc2)c2cc(F)c(C(=O)NS(=O)(=O)C3CC3)cc21 | Sodium channel protein type 9 subunit alpha (Homo sapiens, UniProt Q15858) | IC50 | nM | 13 |
| CC(C)COc1ccc(-c2nn(C)c3cc(C(=O)NS(C)(=O)=O)c(F)cc23)cn1 | Sodium channel protein type 9 subunit alpha (Homo sapiens, UniProt Q15858) | IC50 | nM | 170 |
| CC(C)COc1ncc(-c2nn(C)c3cc(C(=O)NS(=O)(=O)C4CC4)ccc23)cc1Cl | Sodium channel protein type 9 subunit alpha (Homo sapiens, UniProt Q15858) | IC50 | nM | 104 |

## Input Looking for the measured IC50 of `Cn1cc(-c2cnc(OCC(F)F)c(Cl)c2)c2ccc(C(=O)NS(C)(=O)=O)cc21` , can you help?
## Output 850

## Input Looking for the measured IC50 of `Cn1cc(-c2ccc(C(F)(F)F)cc2)c2ccc(C(=O)NS(=O)(=O)C3CC3)nc21` , can you help?
## Output 642

## Input Looking for the measured IC50 of `CN(C)S(=O)(=O)NC(=O)c1ccc2c(-c3ccc(C(F)(F)F)cc3)cn(C)c2c1` , can you help?
## Output 1700

## Input Looking for the measured IC50 of `CC(C)COc1ccc(-c2cn(C)c3cc(C(=O)NS(C)(=O)=O)ccc23)cn1` , can you help?
## Output 164

## Input Looking for the measured IC50 of `CC(C)COc1ncc(-c2cn(C)c3cc(C(=O)NS(C)(=O)=O)cnc23)cc1Cl` , can you help?
## Output 7820

## Input Looking for the measured IC50 of `CC(C)COc1ccc(-c2nn(C)c3cc(C(=O)NS(=O)(=O)C4CC4)c(F)cc23)cn1` , can you help?
## Output 45

Each recorded value in this set is attributed to ChEMBL document CHEMBL4371076.
